Test: Human Liver Microsomal Stability Test
Assay type: in vitro ADME
Conditions: human liver microsomes; percent hepatic blood flow
readout: microsomal stability Cl [% Qh]

smiles code	microsomal stability Cl [% Qh]
C[C@@H](Oc1nc(-c2ccc(C(F)F)nc2)cc2nn(C)cc12)[C@H]1CNC(=O)C1	<23 % Qh
C[C@@H](Oc1cc(-c2ccc(N3CCN(C)CC3)cc2)cc2nn(C)cc12)[C@H]1CNC(=O)C1	<23 % Qh
C[C@@H](Oc1cc(-c2ccccn2)cc2ncccc12)[C@H]1CNC(=O)C1	24 % Qh

Problem: Which measured microsomal stability Cl [% Qh] value corresponds to `C[C@@H](Oc1cc(-c2ccc(C(=O)N3CCN(C)CC3)cc2)cc2ncccc12)[C@H]1CNC(=O)C1` ?
Solution: <23 % Qh

Problem: Same question, `C[C@@H](Oc1cc(-c2ccc(F)cn2)cc2nn(C)cc12)[C@H]1CNC(=O)C1` this time
Solution: <23 % Qh

Problem: Same question, `C[C@@H](Oc1cc(-c2ccc(N3CCOCC3)cc2)cc2nn(C)cc12)[C@H]1CNC(=O)C1` this time
Solution: 25 % Qh

Problem: Same question, `CC(C)Oc1ccc(-c2cc(O[C@H](C)[C@H]3CNC(=O)C3)c3cn(C)nc3c2)cn1` this time
Solution: <23 % Qh
